List of Radioactivity distribution Muscle (lower limbs) values.
Experiment: In vivo kinetics experiment (radioactivity distribution)
Design: species or system Wistar male rat
Conditions: 10 min after administration; rat i.v.; mean ± SD
measure_name: Radioactivity distribution Muscle (lower limbs)

compound | observed_result
CCn1c(-c2cncc(Cn3ccnc3)c2)nc2ccc([123I])cc21 [[^123I] 608] | 0.15 ± 0.00 % ID/g
FCCn1c(-c2cncc(Cn3ccnc3)c2)nc2ccc([123I])cc21 [[^123I] 604] | 0.18 ± 0.05 % ID/g
COC(=O)c1cncn1[C@H](C)c1ccc(I)cc1 [[^123I] IMTO, (R)-[^123I]iodometomidate, reference compound] | 0.18 ± 0.05 % ID/g
Fc1cc2nc(-c3cncc(Cn4ccnc4)c3)n(Cc3ccc([123I])cc3)c2cc1Cl [[^123I] 605] | 0.16 ± 0.01 % ID/g
FCCn1c(-c2cncc(Cn3cncc3[123I])c2)nc2cc(F)c(Cl)cc21 [[^123I] 610] | 0.21 ± 0.05 % ID/g
COc1cc([123I])cc2c1nc(-c1cncc(Cn3ccnc3)c1)n2C1CC1 [[^123I] 609] | 0.20 ± 0.06 % ID/g
Cn1c(-c2cncc(Cn3ccnc3)c2)nc2ccc([123I])cc21 [[^123I] 607] | 0.17 ± 0.02 % ID/g
CC(C)n1c(-c2cncc(Cn3ccnc3)c2)nc2ccc([123I])cc21 [[^123I] 606] | 0.22 ± 0.04 % ID/g

====

Experiment: In vivo kinetics experiment (radioactivity distribution)
Design: species or system Wistar male rat
Settings: rat, caudal vein, 60 min after administration

molecule | Radioactivity distribution Femur / % ID/g
Fc1cc2nc(-c3cncc(Cn4ccnc4)c3)n(CC[18F])c2cc1Cl [[^18F] 100] | 0.77
[123I]c1ccc2nc(-c3cncc(Cn4ccnn4)c3)n(C3CC3)c2c1 [[^123I] 603] | 0.90
Fc1cc2nc(-c3cncc(Cn4ccnc4)c3)n(CC[18F])c2cc1Br [[^18F] 200] | 0.28
Fc1cc2nc(-c3cncc(Cn4ccnc4)c3)n(CCC[18F])c2cc1Cl [[^18F] 500] | 0.12

====

Experiment: In vivo kinetics experiment (radioactivity distribution)
Set-up: species or system Wistar male rat
Conditions: rat, caudal vein, 10 min after administration
Procedure: Each of Compounds [^18F] 100, [^18F] 200, [^123I] 400, [^18F] 500, and [^123I] 601 to 610 obtained by the methods described in Examples 2, 4, 7, 9, 11, 13, 15, 17, 19, 21, 23, 25, 27, and 29, or [^123I] […] From the thus sacrificed rat, blood and organs (heart, lung, stomach, liver, spleen, small intestine, large intestine, kidney, bladder (including urine), muscle (lower limbs), brain, adrenal gland, testis, fat, femur, or thyroid gland) were excised, and the weights thereof were then measured. […]
Strictly below 0.2 % ID/g in Radioactivity distribution Large intestine: t. Otherwise: f.

molecule | answer_label
Fc1cc2nc(-c3cncc(Cn4ccnc4)c3)n(CC[18F])c2cc1Br [[^18F] 200] | t
Fc1cc2nc(-c3cncc(Cn4ccnc4)c3)n(CC[18F])c2cc1Cl [[^18F] 100] | t
Fc1cc2nc(-c3cncc(Cn4ccnc4)c3)n(CCC[18F])c2cc1Cl [[^18F] 500] | f
[123I]c1ccc2nc(-c3cncc(Cn4ccnc4)c3)n(C3CC3)c2c1 [[^123I] 602] | t
[123I]c1ccc2nc(-c3cncc(Cn4ccnn4)c3)n(C3CC3)c2c1 [[^123I] 603] | t
FCCn1c(-c2cncc(Cn3ccnc3)c2)nc2cc(F)c([123I])cc21 [[^123I] 400] | t

====

Assay: In vivo kinetics experiment (radioactivity distribution)
Set-up: species or system Wistar male rat
Settings: rat, caudal vein, 10 min after administration
Protocol: Each of Compounds [^18F] 100, [^18F] 200, [^123I] 400, [^18F] 500, and [^123I] 601 to 610 obtained by the methods described in Examples 2, 4, 7, 9, 11, 13, 15, 17, 19, 21, 23, 25, 27, and 29, or [^123I] […] From the thus sacrificed rat, blood and organs (heart, lung, stomach, liver, spleen, small intestine, large intestine, kidney, bladder (including urine), muscle (lower limbs), brain, adrenal gland, testis, fat, femur, or thyroid gland) were excised, and the weights thereof were then measured. […]
Would you please tag the item y when its Radioactivity distribution Bladder (including urine) is 0.3 % ID/g or above, and n when it is below?

compound | answer_label
Fc1cc2nc(-c3cncc(Cn4ccnc4)c3)n(CC[18F])c2cc1Br [[^18F] 200] | y
Fc1cc2nc(-c3cncc(Cn4ccnc4)c3)n(CCC[18F])c2cc1Cl [[^18F] 500] | y
[123I]c1ccc2nc(-c3cncc(Cn4ccnc4)c3)n(C3CC3)c2c1 [[^123I] 602] | y
[123I]c1ccc2nc(-c3cncc(Cn4ccnn4)c3)n(C3CC3)c2c1 [[^123I] 603] | y
FCCn1c(-c2cncc(Cn3ccnc3)c2)nc2cc(F)c([123I])cc21 [[^123I] 400] | y
Fc1cc2nc(-c3cncc(Cn4ccnc4)c3)n(CC[18F])c2cc1Cl [[^18F] 100] | n

====

Test: In vivo kinetics experiment (radioactivity distribution)
Parameters: species or system Wistar male rat
Conditions: 30 min after administration; rat i.v.; mean ± SD
Strictly below 8 in Adrenal gland/liver ratio of radioactivity accumulation: Met. Otherwise: Not met.

molecule | answer_label
COc1cc([123I])cc2c1nc(-c1cncc(Cn3ccnc3)c1)n2C1CC1 [[^123I] 609] | Met
COC(=O)c1cncn1[C@H](C)c1ccc(I)cc1 [[^123I] IMTO, (R)-[^123I]iodometomidate, reference compound] | Not met
CCn1c(-c2cncc(Cn3ccnc3)c2)nc2ccc([123I])cc21 [[^123I] 608] | Not met
Fc1cc2nc(-c3cncc(Cn4ccnc4)c3)n(Cc3ccc([123I])cc3)c2cc1Cl [[^123I] 605] | Met
Cn1c(-c2cncc(Cn3ccnc3)c2)nc2ccc([123I])cc21 [[^123I] 607] | Not met
FCCn1c(-c2cncc(Cn3ccnc3)c2)nc2ccc([123I])cc21 [[^123I] 604] | Not met
FCCn1c(-c2cncc(Cn3cncc3[123I])c2)nc2cc(F)c(Cl)cc21 [[^123I] 610] | Met

====

Test: In vivo kinetics experiment (radioactivity distribution)
Set-up: species or system Wistar male rat
Settings: rat, caudal vein, 30 min after administration

compound | Radioactivity distribution Whole brain / % ID/g
Fc1cc2nc(-c3cncc(Cn4ccnc4)c3)n(CC[18F])c2cc1Br [[^18F] 200] | 0.01
Fc1cc2nc(-c3cncc(Cn4ccnc4)c3)n(CC[18F])c2cc1Cl [[^18F] 100] | 0.01
Fc1cc2nc(-c3cncc(Cn4ccnc4)c3)n(CCC[18F])c2cc1Cl [[^18F] 500] | 0.01
FCCn1c(-c2cncc(Cn3ccnc3)c2)nc2cc(F)c([123I])cc21 [[^123I] 400] | 0.02
[123I]c1ccc2nc(-c3cncc(Cn4ccnn4)c3)n(C3CC3)c2c1 [[^123I] 603] | 0.01
[123I]c1ccc2nc(-c3cncc(Cn4ccnc4)c3)n(C3CC3)c2c1 [[^123I] 602] | 0.02

====

List of Adrenal gland/fat ratio of radioactivity accumulation values.
Assay: In vivo kinetics experiment (radioactivity distribution)
Parameters: species or system Wistar male rat
Details: 60 min after administration; rat i.v.; mean ± SD
measure_name: Adrenal gland/fat ratio of radioactivity accumulation

compound | observed_result
Fc1cc2nc(-c3cncc(Cn4ccnc4)c3)n(Cc3ccc([123I])cc3)c2cc1Cl [[^123I] 605] | 10.82
Cn1c(-c2cncc(Cn3ccnc3)c2)nc2ccc([123I])cc21 [[^123I] 607] | 194.91
COc1cc([123I])cc2c1nc(-c1cncc(Cn3ccnc3)c1)n2C1CC1 [[^123I] 609] | 147.76
FCCn1c(-c2cncc(Cn3cncc3[123I])c2)nc2cc(F)c(Cl)cc21 [[^123I] 610] | 120.42
CC(C)n1c(-c2cncc(Cn3ccnc3)c2)nc2ccc([123I])cc21 [[^123I] 606] | 229.99
FCCn1c(-c2cncc(Cn3ccnc3)c2)nc2ccc([123I])cc21 [[^123I] 604] | 161.46
CCn1c(-c2cncc(Cn3ccnc3)c2)nc2ccc([123I])cc21 [[^123I] 608] | 158.96

====

Test: In vivo kinetics experiment (radioactivity distribution)
Design: species or system Wistar male rat
Conditions: 30 min after administration; rat i.v.; mean ± SD
Would you please tag the item condition met when its Radioactivity distribution Testis is 0.1 % ID/g or above, and condition not met when it is below?

molecule | answer_label
FCCn1c(-c2cncc(Cn3ccnc3)c2)nc2ccc([123I])cc21 [[^123I] 604] | condition not met
COc1cc([123I])cc2c1nc(-c1cncc(Cn3ccnc3)c1)n2C1CC1 [[^123I] 609] | condition not met
FCCn1c(-c2cncc(Cn3cncc3[123I])c2)nc2cc(F)c(Cl)cc21 [[^123I] 610] | condition met
COC(=O)c1cncn1[C@H](C)c1ccc(I)cc1 [[^123I] IMTO, (R)-[^123I]iodometomidate, reference compound] | condition met
Cn1c(-c2cncc(Cn3ccnc3)c2)nc2ccc([123I])cc21 [[^123I] 607] | condition not met
Fc1cc2nc(-c3cncc(Cn4ccnc4)c3)n(Cc3ccc([123I])cc3)c2cc1Cl [[^123I] 605] | condition not met
CCn1c(-c2cncc(Cn3ccnc3)c2)nc2ccc([123I])cc21 [[^123I] 608] | condition met
CC(C)n1c(-c2cncc(Cn3ccnc3)c2)nc2ccc([123I])cc21 [[^123I] 606] | condition met
